For each entry below, report its melting point value.

Completed entries (count: 7):
COc1ccc(-c2coc3c4c(ccc3c2=O)OC2OCCC2C4)cc1OC (centres unmarked) [Isoflavonoid 20b] :: 193 to 195 °C
COc1ccc(-c2coc3c4c(ccc3c2=O)OC2=C(C4)C(=O)CC(C)(C)C2)cc1OC [Isoflavonoid 22b] :: 196 to 198 °C
COCc1c(OC)cc2occ(-c3ccc(OC)cc3)c(=O)c2c1O [Isoflavonoid 10b] :: 180 to 181 °C
COc1ccc(-c2coc3c(C)c4c(cc3c2=O)CC2CCOC2O4)cc1 (centres unmarked) [Isoflavonoid 25a] :: 155 to 157 °C
COc1ccc(-c2coc3c4c(ccc3c2=O)OC2(O)CCCCC2C4)cc1OC (centres unmarked) [Isoflavonoid 24b] :: 214 to 216 °C
COc1ccc(-c2c(C)oc3c(CO)c(O)ccc3c2=O)cc1 [Isoflavonoid 9e] :: 212 to 214 °C (dec.)
COCc1c(O)ccc2c(=O)c(-c3ccc(OC)cc3)coc12 [Isoflavonoid 11d] :: 167 to 169 °C (dec.)

Task item: Supply measured melting point of O=c1c(-c2ccc(Cl)cc2)coc2c3c(ccc12)OC1OCCC1C3 (centres unmarked) [Isoflavonoid 20e] in your reply.
Reply: 194 to 195 °C

###

Provide the recorded melting point for the entries that follow.

Look over these answered cases.
COc1ccc(-c2c(C)oc3c(CC4CCCC4=O)c(O)ccc3c2=O)cc1OC (centres unmarked) [Isoflavonoid 23h] :: 88 to 90 °C
O=c1c(-c2ccc3c(c2)OCO3)coc2c3c(ccc12)OC1OCCCC1C3 (centres unmarked) [Isoflavonoid 21c] :: 179 to 181 °C
COCc1c(OC)cc2occ(-c3ccccc3OC)c(=O)c2c1O [Isoflavonoid 10a] :: 123 to 124 °C
O=c1c(-c2ccc3c(c2)OCCO3)coc2c3c(ccc12)OC1OCCCC1C3 (centres unmarked) [Isoflavonoid 21d] :: 160 to 162 °C
COc1ccc(-c2c(C)oc3c4c(ccc3c2=O)OC2(O)CCCCC2C4)cc1 (centres unmarked) [Isoflavonoid 24g] :: 212 to 213 °C
COc1ccc(-c2c(C)oc3c4c(ccc3c2=O)OC2=C(C4)C(=O)CC(C)(C)C2)cc1 [Isoflavonoid 22g] :: 236 to 237 °C
COc1ccccc1-c1coc2cc(OC)c(CO)c(O)c2c1=O :: 100 to 101 °C
COc1ccccc1-c1coc2c(CO)c(O)ccc2c1=O :: 163 to 165 °C
COc1ccc(-c2coc3c(C)c4c(cc3c2=O)CC2=C(CC(C)(C)CC2=O)O4)cc1 [Isoflavonoid 26a] :: 230 to 232 °C
Cc1oc2c3c(ccc2c(=O)c1-c1ccccc1)OC1OCCCC1C3 (centres unmarked) [Isoflavonoid 21f] :: 165 to 167 °C

Hi team, please reply with melting point for each item in this list.
1. COc1ccc(-c2c(C)oc3c4c(ccc3c2=O)OC2OCCC2C4)cc1 (centres unmarked) [Isoflavonoid 20g]
2. COc1ccc(-c2c(C)oc3c(C)c4c(cc3c2=O)CC2=C(CC(C)(C)CC2=O)O4)cc1 [Isoflavonoid 26g]
3. COc1ccc(-c2coc3c4c(ccc3c2=O)OC2OCCCC2C4)cc1OC (centres unmarked) [Isoflavonoid 21b]
4. COc1ccc(-c2c(C)oc3c4c(ccc3c2=O)OC2OCCCC2C4)cc1 (centres unmarked) [Isoflavonoid 21g]
5. COc1ccc(-c2c(C)oc3c4c(ccc3c2=O)OC2OCCCC2C4)cc1OC (centres unmarked) [Isoflavonoid 21h]

Reply:
["227 to 229 °C", "270 to 272 °C", "177 to 178 °C", "199 to 200 °C", "209 to 210 °C"]

// batch mode: one melting point value per listed entry
1. Cc1oc2c3c(ccc2c(=O)c1-c1ccccc1)OC1OCCC1C3 (centres unmarked) [Isoflavonoid 20f]
2. COCc1c(O)ccc2c(=O)c(-c3ccccc3OC)coc12 [Isoflavonoid 11c]

Reply:
181 to 182 °C
164 to 166 °C
